Biological target: PBRM1(2) (Homo sapiens, UniProt Q86U86)
Construct: FALZ, PBRM1-BD2, BPRM1-BDS, TAF1-BD2, TAF1L-BD2
Sequence (Q86U86 177-287 limits assumed): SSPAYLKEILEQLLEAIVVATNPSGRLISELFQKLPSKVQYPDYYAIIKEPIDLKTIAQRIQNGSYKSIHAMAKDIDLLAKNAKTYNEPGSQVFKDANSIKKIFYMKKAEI
Assay: BROMOscan Kd determination PBRM1(2)
experimental readout: pKd
Schema: pKd number; meaning minus log10 of the concentration expressed in molar units.

Record `Cc1[nH]c(-c2cc(N)ccc2Cl)c2c1C(=O)CCCC2` , field pKd: 5.38

----------
Target: TRIM33(PHD, Bromo.) (Homo sapiens, UniProt Q9UPN9)
Construct: TRIM33(PHD, Bromo.); the phage DNA is read by qPCR
Sequence (Q9UPN9 1-1127): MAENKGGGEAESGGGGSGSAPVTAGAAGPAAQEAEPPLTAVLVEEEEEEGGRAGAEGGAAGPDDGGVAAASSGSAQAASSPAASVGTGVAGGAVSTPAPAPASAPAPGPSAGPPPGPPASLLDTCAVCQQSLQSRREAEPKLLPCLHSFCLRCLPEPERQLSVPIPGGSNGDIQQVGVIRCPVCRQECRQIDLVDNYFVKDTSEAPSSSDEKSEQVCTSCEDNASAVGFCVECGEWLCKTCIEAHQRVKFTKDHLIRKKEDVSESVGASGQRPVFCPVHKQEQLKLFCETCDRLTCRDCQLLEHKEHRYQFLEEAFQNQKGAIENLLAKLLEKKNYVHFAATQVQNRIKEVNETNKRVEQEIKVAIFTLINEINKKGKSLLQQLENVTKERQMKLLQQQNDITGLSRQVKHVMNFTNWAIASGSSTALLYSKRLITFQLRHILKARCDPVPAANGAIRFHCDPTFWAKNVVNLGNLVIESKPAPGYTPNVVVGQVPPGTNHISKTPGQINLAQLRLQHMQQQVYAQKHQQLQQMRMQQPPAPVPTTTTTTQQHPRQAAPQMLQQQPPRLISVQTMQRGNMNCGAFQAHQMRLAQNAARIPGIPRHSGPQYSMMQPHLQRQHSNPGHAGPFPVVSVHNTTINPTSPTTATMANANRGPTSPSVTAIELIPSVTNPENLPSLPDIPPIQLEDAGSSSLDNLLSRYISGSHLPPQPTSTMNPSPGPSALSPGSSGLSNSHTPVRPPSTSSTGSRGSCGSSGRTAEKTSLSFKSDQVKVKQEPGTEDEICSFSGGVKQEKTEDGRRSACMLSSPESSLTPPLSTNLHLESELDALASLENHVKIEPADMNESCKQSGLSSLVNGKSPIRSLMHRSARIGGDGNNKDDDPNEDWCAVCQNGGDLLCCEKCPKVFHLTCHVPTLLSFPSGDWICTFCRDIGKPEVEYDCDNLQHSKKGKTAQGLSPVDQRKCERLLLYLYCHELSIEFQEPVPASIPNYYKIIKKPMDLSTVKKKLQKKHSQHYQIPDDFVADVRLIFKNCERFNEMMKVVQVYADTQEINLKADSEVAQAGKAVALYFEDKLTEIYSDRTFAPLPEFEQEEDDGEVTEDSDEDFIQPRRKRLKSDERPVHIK
Assay: BROMOscan Kd determination TRIM33(PHD, Bromo.)
experimental readout: Kd (µM)
Please reply with the bare figure in µM and do not write the unit itself.

Kd for TRIM33(PHD, Bromo.) (Homo sapiens, UniProt Q9UPN9) with input Cc1[nH]c(-c2cc(N)ccc2Cl)c2c1C(=O)CCCC2 [Compound 23] equals 7.7
